assay: Components of the Cytosolic LPS Sensing Pathway: Gene Identification via Genome-wide siRNA Screen; details: RAW264.7 macrophages, IL-1a HTRF, actives lie on both sides, screened at 100 nM (by protocol), cells primed 5 h with Pam3CSK4 first;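 note: robust z of the log signal after scaling to non-targeting control siRNA wells of the plate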
About 3,700 (7%) of roughly 53,000 sequences were called active. The entries come from a sample that favours actives as a whole.
measured_endpoint: z-score

>>> result_number("GGAGAUUGAGAACACAAGCTT against Hipk2")
2.37
>>> result_number("CCAGAGUUUUAUAACGGAATT against Olfr1229")
0.601
>>> result_number("GCUCUUCCGCACUUUCAUUTT against H2al1m")
1.37
>>> result_number("CCAUUAUUCUAGUGUCCUATT against Olfr1368")
-0.753
>>> result_number("CCCAUACUAAAAUUGUUGATT against Adam29")
0.253
>>> result_number("GGAAAUCUAUUUCAUUGACTT against Zcchc10")
0.956
>>> result_number("GGAGACCUUCCAGAACACATT against Mesd")
2.38
>>> result_number("GCGGGAACUUAAAGUUUACTT against Yars")
3.18
>>> result_number("GCCCUAAAUCCUUUUAUUATT against Trpc7")
2.78
>>> result_number("GGGUAGUCACUCAAUAAAUTT against Pear1")
-0.54
>>> result_number("GGCAAUGUUUACAAGUUCCTT against Ralgps1")
0.491
>>> result_number("GCAUAUCCUAAACACUGUUTT against Pqlc3")
-0.966
>>> result_number("CCGGUUGAGUUCACAGAAUTT against Atad3aos")
-2.44
>>> result_number("GGCAAAUCAAGCAGAAAAUTT against Ncor1")
0.739
>>> result_number("GGUUGUGGUCUUUGUUCUGTT against Olfr923")
-1.11
>>> result_number("GGAUAAUGGAGCAAAUUGCTT against Slc22a1")
-0.522
>>> result_number("GCUAGAAAAAAAUCAGUUGTT against Eif2a")
0.6
>>> result_number("GGGACAUUUCUAUUAGAAUTT against Snx24")
-0.95
>>> result_number("GGCAUUCUGUGAGACACAATT against Exosc10")
0.389
>>> result_number("CCUACAGAUAGGUAUGUAGTT against Exo1")
-2.07
>>> result_number("CCUUUGACGGCCAUGAGUATT against Muc6")
-1.39
>>> result_number("GGAAAUGUAGUGAAGGGUGTT against Ndfip2")
2.03
>>> result_number("CCCUAACAUACUGGAGCUATT against Erfe")
3.56
>>> result_number("GGAUGAAGCCUUCAUCAGGTT against Adcy6")
0.0162
>>> result_number("CCUGCACAACUGGAAACCUTT against Nectin2")
-2.16
>>> result_number("GCCUGGUACAGAACCAGUATT against Ntsr2")
0.547
>>> result_number("GCCUUAUCCAUAUCGACUATT against Arrdc1")
0.831
>>> result_number("CCCAAAAACGUGACAUCUUTT against Inppl1")
0.901
>>> result_number("GGAAACUUGAUUAUUUAGGTT against Vrk2")
0.915
>>> result_number("GGCAAAGUGAGUAAGACAGTT against Habp2")
0.0806
>>> result_number("CCCGGUUCUUAGGUUUGUATT against Prr15l")
1
>>> result_number("GGAGCUGAGCAACAUCACATT against Il13")
-1.35
>>> result_number("CCUGAUCCGAUCAUCAGGATT against Cytip")
0.133
>>> result_number("GGAGCUGCUUGCUCAAAGATT against Tmem65")
0.61
>>> result_number("CCCUGGGCAGUUUGCAUGUTT against Dgcr2")
0.815
>>> result_number("GCUAAAAGGCUACGGGAGUTT against Bhlhe23")
-0.266
>>> result_number("GCACCAAACCAAUAUUAGUTT against Epb41l3")
1.13
>>> result_number("GCUCAAAGUUUGAACUGGCTT against Atxn2l")
0.153
>>> result_number("GGUGUUCAGGAGAUGAUGCTT against Cdt1")
0.0123
>>> result_number("GCGAUUGAGCAGUGAAUAATT against Fam216b")
1.06
